- System: Bacillus subtilis
- Test description: Antimicrobial activity against Bacillus subtilis ATCC 6633 by MHB method
- Assay type: functional
Activity calls are given as the source filed them. No cut-off for these calls is given here.
Measured parameter: MIC

- COc1cc(CCCOC(=O)CCl)cc2cc(-c3ccc4c(c3)OCO4)oc12: inactive
- COc1cc(CCCCl)cc2c([N+](=O)[O-])c(-c3ccc4c(c3)OCO4)oc12: inactive
- COc1cc(CC/C=N/NC(N)=O)cc2cc(-c3ccc4c(c3)OCO4)oc12: 400 µg/mL
- COc1cc(CCCO)cc2cc(-c3ccc4c(c3)OCO4)oc12: 800 µg/mL

----------
Provide the reported MIC of each item.
- System: Candida albicans
- Test description: Antimicrobial activity against Candida albicans ATCC 10231 by MHB method
- Assay type: functional
Number only, in µg/mL; omit the unit.

## Task Quick one: MIC of "COc1cc(CC/C=C/C(C)=O)cc2cc(-c3ccc4c(c3)OCO4)oc12" ?
## Result 200

## Task Quick one: MIC of "COc1cc(CC/C=N/OC(=O)CCl)cc2cc(-c3ccc4c(c3)OCO4)oc12" ?
## Result 25

## Task Quick one: MIC of "COc1cc(CCCOS(=O)(=O)O)cc2cc(-c3ccc4c(c3)OCO4)oc12" ?
## Result 50

## Task Quick one: MIC of "COc1cc(CC/C=N/NC(N)=S)cc2cc(-c3ccc4c(c3)OCO4)oc12" ?
## Result 200

## Task Quick one: MIC of "COc1cc(CCCOC(=O)CCl)cc2cc(-c3ccc4c(c3)OCO4)oc12" ?
## Result 100

## Task Quick one: MIC of "COc1cc(CC/C=C(\C=O)Cc2cc(OC)c3oc(-c4ccc5c(c4)OCO5)cc3c2)cc2cc(-c3ccc4c(c3)OCO4)oc12" ?
## Result 25

## Task Quick one: MIC of "COc1cc(CCCCl)cc2c([N+](=O)[O-])c(-c3ccc4c(c3)OCO4)oc12" ?
## Result 25

## Task Quick one: MIC of "COc1cc(CC/C=N/OC(=O)c2ccccc2)cc2cc(-c3ccc4c(c3)OCO4)oc12" ?
## Result 100

## Task Quick one: MIC of "COc1cc(CC/C=N/O)cc2cc(-c3ccc4c(c3)OCO4)oc12" ?
## Result 800

----------
- System: Candida albicans
- Test description: Antimicrobial activity against Candida albicans ATCC 10231 by MHB method
- Assay type: functional
Measured parameter: MIC

## Task Quick one: MIC of "COc1cc(CCCO)cc2c(N)c(-c3ccc4c(c3)OCO4)oc12" ?
## Result 800 µg/mL

## Task Quick one: MIC of "COc1cc(CC/C=N/NC(N)=O)cc2cc(-c3ccc4c(c3)OCO4)oc12" ?
## Result 25 µg/mL

## Task Quick one: MIC of "COc1cc(CCCO)cc2cc(-c3ccc4c(c3)OCO4)oc12" ?
## Result 25 µg/mL

## Task Quick one: MIC of "COc1ccc(-c2cc3cc(CCCOC(=O)CCl)cc(OC)c3o2)cc1OC" ?
## Result 200 µg/mL

## Task Quick one: MIC of COc1cc(CCCOC(C)=O)cc2cc(-c3ccc4c(c3)OCO4)oc12 [EGONOL ACETATE] ?
## Result 200 µg/mL

## Task Quick one: MIC of "CCN(CC)CCCc1cc(OC)c2oc(-c3ccc4c(c3)OCO4)cc2c1" ?
## Result 200 µg/mL

## Task Quick one: MIC of "COc1c([N+](=O)[O-])c(CCCO)cc2c([N+](=O)[O-])c(-c3ccc4c(c3)OCO4)oc12" ?
## Result 400 µg/mL

## Task Quick one: MIC of "COc1cc(CCC(=O)O)cc2cc(-c3ccc4c(c3)OCO4)oc12" ?
## Result 50 µg/mL

## Task Quick one: MIC of "COc1cc(CCCN2CCOCC2)cc2cc(-c3ccc4c(c3)OCO4)oc12" ?
## Result 25 µg/mL

----------
- Test system: Escherichia coli
- Test description: Antimicrobial activity against Escherichia coli ATCC 8739 by MHB method
- Type: functional
Calls of active or inactive are those of the source. The calls are words filed in the database; no cut-off is given here.
Measured parameter: MIC

Examples with their reported MIC follow.
* COc1cc(CC/C=N/NC(N)=S)cc2cc(-c3ccc4c(c3)OCO4)oc12 | inactive
* COc1cc(CCCOC(C)=O)cc2cc(-c3ccc4c(c3)OCO4)oc12 [EGONOL ACETATE] | inactive
* COc1cc(CCCO)cc2c(N)c(-c3ccc4c(c3)OCO4)oc12 | inactive
* COc1cc(CCCO)cc2cc(-c3ccc4c(c3)OCO4)oc12 [EGONOL] | 800 µg/mL
* CCN(CC)CCCc1cc(OC)c2oc(-c3ccc4c(c3)OCO4)cc2c1 | inactive
* COc1cc(CCCOC(=O)CCl)cc2cc(-c3ccc4c(c3)OCO4)oc12 | inactive

Pending compound:
## Task Quick one: MIC of "COc1cc(CC/C=C/C(C)=O)cc2cc(-c3ccc4c(c3)OCO4)oc12" ?
## Result inactive

----------
- System: Bacillus subtilis
- Test description: Antimicrobial activity against Bacillus subtilis ATCC 6633 by MHB method
- Assay type: functional
Calls of active or inactive are those of the source. The rule behind the calls is not given here.
Measured parameter: MIC

Examples with their reported MIC follow.
* CCN(CC)CCCc1cc(OC)c2oc(-c3ccc4c(c3)OCO4)cc2c1 | inactive
* COc1cc(CCCN2CCOCC2)cc2cc(-c3ccc4c(c3)OCO4)oc12 | inactive
* COc1cc(CCCOC(C)=O)cc2cc(-c3ccc4c(c3)OCO4)oc12 [EGONOL ACETATE] | inactive
* COc1cc(CC/C=N/OC(=O)CCl)cc2cc(-c3ccc4c(c3)OCO4)oc12 | inactive
* COc1cc(CCCOC(=O)CN2CCOCC2)cc2cc(-c3ccc4c(c3)OCO4)oc12 | inactive
* COc1c([N+](=O)[O-])c(CCCO)cc2c([N+](=O)[O-])c(-c3ccc4c(c3)OCO4)oc12 | 400 µg/mL

## Task Quick one: MIC of "COc1ccc(-c2cc3cc(CCCOC(=O)CCl)cc(OC)c3o2)cc1OC" ?
## Result 400 µg/mL

## Task Quick one: MIC of "COc1cc(CC/C=N/OC(=O)c2ccccc2)cc2cc(-c3ccc4c(c3)OCO4)oc12" ?
## Result 400 µg/mL

## Task Quick one: MIC of "COc1cc(CC/C=C/C(C)=O)cc2cc(-c3ccc4c(c3)OCO4)oc12" ?
## Result inactive

## Task Quick one: MIC of "COc1cc(CCC(=O)O)cc2cc(-c3ccc4c(c3)OCO4)oc12" ?
## Result 800 µg/mL

----------
- Test system: Bacillus subtilis
- Test description: Antimicrobial activity against Bacillus subtilis ATCC 6633 by MHB method
- Type: functional
Calls of active or inactive are those of the source. No cut-off for these calls is given here.
Measured parameter: MIC

Examples with their reported MIC follow.
• COc1cc(CC/C=N/O)cc2cc(-c3ccc4c(c3)OCO4)oc12 = inactive
• COc1cc(CCCOS(=O)(=O)O)cc2cc(-c3ccc4c(c3)OCO4)oc12 = 400 µg/mL
• COc1cc(CCCO)cc2c(N)c(-c3ccc4c(c3)OCO4)oc12 = inactive
• COc1cc(CC/C=N/NC(N)=S)cc2cc(-c3ccc4c(c3)OCO4)oc12 = 400 µg/mL

Pending compound:
## Task Could you share what MIC was measured for "COc1cc(CC/C=C(\C=O)Cc2cc(OC)c3oc(-c4ccc5c(c4)OCO5)cc3c2)cc2cc(-c3ccc4c(c3)OCO4)oc12" , tested on Bacillus subtilis?
## Result inactive

----------
- Test system: Escherichia coli
- Test description: Antimicrobial activity against Escherichia coli ATCC 8739 by MHB method
- Type: functional
Active and inactive are the calls of the source. The rule behind the calls is not given here.
Measured parameter: MIC

- COc1cc(CC/C=N/OC(=O)c2ccccc2)cc2cc(-c3ccc4c(c3)OCO4)oc12: inactive
- COc1cc(CC/C=N/O)cc2cc(-c3ccc4c(c3)OCO4)oc12: inactive
- COc1cc(CCCN2CCOCC2)cc2cc(-c3ccc4c(c3)OCO4)oc12: inactive
- COc1cc(CCCOS(=O)(=O)O)cc2cc(-c3ccc4c(c3)OCO4)oc12: 400 µg/mL

## Task Could you share what MIC was measured for "COc1cc(CCC(=O)O)cc2cc(-c3ccc4c(c3)OCO4)oc12" , tested on Escherichia coli?
## Result inactive

## Task Could you share what MIC was measured for "COc1cc(CC/C=N/NC(N)=O)cc2cc(-c3ccc4c(c3)OCO4)oc12" , tested on Escherichia coli?
## Result inactive

## Task Could you share what MIC was measured for "COc1ccc(-c2cc3cc(CCCOC(=O)CCl)cc(OC)c3o2)cc1OC" , tested on Escherichia coli?
## Result inactive

## Task Could you share what MIC was measured for "COc1cc(CCCOC(=O)CN2CCOCC2)cc2cc(-c3ccc4c(c3)OCO4)oc12" , tested on Escherichia coli?
## Result 800 µg/mL
